Test method notes: Biodistribution of 177Lu-labeled αMSH analogues in mice bearing B16F10 mouse melanoma
Format: in vivo, C57BL/6J mice
Condition parameters: mouse, thyroid, iv, total radioactivity; 1 h p.i., C57BL/6J mice, B16F10 melanoma; read-out: Biodistribution, Thyroid
Quantity: tissue uptake at 1 h (%ID/g)

Compound	Quantity	Endpoint result
CCCC[C@H](NC(=O)CN1CCC(NC(=O)[C@H](CCCCNC(=O)CN2CCN(CC(=O)O)CCN(CC(=O)O)CCN(CC(=O)O)CC2)NC(=O)[C@H](CCC(=O)O)NC(=O)CCCc2ccc(I)cc2)CC1)C(=O)N[C@H]1CC(=O)NCCCC[C@@H](C(N)=O)NC(=O)[C@H](Cc2c[nH]c3ccccc23)NC(=O)[C@H](CCCNC(=N)N)NC(=O)[C@@H](Cc2ccccc2)NC(=O)[C@H](Cc2c[nH]cn2)NC1=O [^177Lu-labeled CCZ01082, metal not drawn]	tissue uptake at 1 h	3.41
